- test-target: FAD-linked sulfhydryl oxidase ALR (Homo sapiens) (UniProt P55789)
- Sequence (P55789 whole entry, looked up): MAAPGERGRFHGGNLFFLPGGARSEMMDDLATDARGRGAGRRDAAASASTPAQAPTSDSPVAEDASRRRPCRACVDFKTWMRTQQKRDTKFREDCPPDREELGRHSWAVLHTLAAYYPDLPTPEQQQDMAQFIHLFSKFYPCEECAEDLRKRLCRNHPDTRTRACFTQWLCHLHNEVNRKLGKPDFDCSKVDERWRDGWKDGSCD
- test-protocol: ALR-catalysed DTT oxidation blockers – biochemical, H2O2 detection, HRP-luminol luminescence, single point, primary screen (AID 485317)
- recorded-conditions: purified ALR, hits give high values, concentration not given here
In all, about 290,000 compounds went through this assay and about 11,000 (3.8%) were called active. For the sample, actives were picked, then their nearest neighbours and some compounds at random.
property-measured: inhibition (%)
// return numeric value only (unit: %, not printed)

Recorded inhibition, per entry:
# molecule, property-measured, unit, measured-number
rows = [
    ("CCC(C)c1ccccc1N1CC(C(=O)N2CCN(S(=O)(=O)c3ccc(F)cc3)CC2)CC1=O (stereo unspecified)", "inhibition", "%", 1.3),
    ("Nc1nc(-c2ccccc2)cc(-c2ccccc2)n1", "inhibition", "%", -2.58),
    ("Cc1nc2cc(NC(=O)Nc3cccc(F)c3)ccc2n1C", "inhibition", "%", -7.89),
    ("COc1ccc(C(=NN)c2ccc(OC)cc2)cc1", "inhibition", "%", 0.931),
    ("Cc1ccccc1-n1c(SCC(=O)Nc2cccc3ccccc23)nc(O)cc1=O", "inhibition", "%", 59.8),
]

Entry under review: `FC(F)(F)c1nnc2sc(-c3ccco3)nn12` . Reported inhibition?
-7.15

Look at this molecule and give its reported inhibition. `CC(C)Cn1c(SCC(=O)Nc2ccc(Cl)cc2F)nc(O)cc1=O`
98.5

Reported inhibition, molecule `Nc1ccc(-c2sc(N)nc2-c2ccccc2)cc1` : ____
99

###

- test-target: FAD-linked sulfhydryl oxidase ALR (Homo sapiens)
- test-protocol: ALR-catalysed DTT oxidation blockers – biochemical, H2O2 detection, HRP-luminol luminescence, single point, primary screen (AID 485317)
- recorded-conditions: purified ALR, hits give high values, concentration not given here
In all, about 290,000 compounds went through this assay and about 11,000 (3.8%) were called active. This is one part of a sample in which actives are shown more often than they occur.
In this section we review reported inhibition values for a set of compounds.
Write the number in % without appending the unit.

# compound, inhibition, %
measured = [
    ("C/C=C/c1ccc(OCC(=O)NNC(=O)CN(C)S(=O)(=O)c2ccc(C)cc2)c(OC)c1", -17.6),
    ("Cc1cc(/C=N/n2cnnc2)c(C)n1-c1cccc(C(=O)O)c1", 2.1),
    ("C=CCn1c(SCC(=O)NC(=O)Cc2ccccc2)nc2ccccc2c1=O", -2.51),
    ("C/C(=N\\Nc1nc2ccccc2[nH]1)c1cccs1", 99),
]

Which value of inhibition has been reported for `C=CC[C@@H](CC(=O)NCCO)C(=O)N[C@H](C)COC(=O)[C@@H](CC=C)CC(=O)OC(C)(C)C` in the records?
4.16

Value lookup for inhibition; key = `Cc1cccc(Nc2nnc(SCC(=O)c3c(N)n(C4CC4)c(=O)[nH]c3=O)s2)c1C`
-3.29

Look up inhibition: `COc1cc(/C=C/C(=O)OCC(=O)Nc2cccc(Oc3ccccc3)c2)ccc1O`
-5.43

I am curious: what inhibition value has been reported for `Cc1cc(/C=C2\SC(=O)N(C)C2=O)c(C)n1-c1cccc(C(=O)O)c1` ?
81.6

Which inhibition value is on record for `COc1cc(/C=C/C(=O)OCC(=O)NCCCc2ccccc2)ccc1O` ?
92.7

Quick one: inhibition of `CN1C(=O)/C(=C/c2ccco2)SC1=Nc1cccc(C(=O)O)c1` ?
1.79

Tell me the measured inhibition of `[O-][n+]1ccc(OCc2ccccc2)cc1` , please.
-3.31

Dear colleague, I am looking for the recorded inhibition of the following compound: `Cc1cc(=O)[nH]c(SCc2ccc(Cl)cc2)n1`
-9.56

# inhibition lookup, item `C=CCn1c(SCc2ccc(C(=O)NCCO)cc2)nc2ccccc2c1=O`
98.7

Which inhibition reading was recorded for the compound `C/C(=N\Nc1ncc(Cl)cc1Cl)c1cccs1` ?
0.466

What value of inhibition has been reported for the following compound? `COc1cc(C(=S)NCc2ccccc2)cc(Br)c1O`
88.4

What value of inhibition has been reported for the following compound? COc1ccc(NC(=O)C2CCC(CNc3c(N4CCCCC4)c(=O)c3=O)CC2)c(OC)c1 (configuration not stated)
-10.1

For `COc1ccc(/C=C2\SC(=O)N(CCC(=O)NCCCn3ccnc3)C2=O)cc1` , what is its reported inhibition?
-4.29

###

- test-target: FAD-linked sulfhydryl oxidase ALR (Homo sapiens)
- test-protocol: ALR-catalysed DTT oxidation blockers – biochemical, H2O2 detection, HRP-luminol luminescence, single point, primary screen (AID 485317)
- recorded-conditions: purified ALR, hits give high values, concentration not given here
The whole screen tested about 290,000 compounds, of which about 11,000 (3.8%) were called active. The sample as a whole holds a higher share of actives than the screen did.
The following molecules are shown together with reported inhibition values.
# value in %; strip the unit string

Reference set, count: 4
# chem-smiles, inhibition, %
measured = [
    ("Cc1nc(SCc2ccc(F)cc2)c([N+](=O)[O-])[nH]1", 1.42),
    ("COc1ccc(Cl)cc1NC(=O)CCN1CCOCC1", -5.1),
    ("Cc1noc(C)c1S(=O)(=O)N(C)C[C@H]1Oc2ccc(NC(=O)C3CCCCC3)cc2C(=O)N([C@H](C)CO)C[C@@H]1C", 0.231),
    ("Cc1nc(SCC(=O)c2ccccc2)c([N+](=O)[O-])[nH]1", 97.8),
]

Shift focus to the following entry.
Item: `COc1ccccc1NC(=O)CCN1CCN(c2ccc(Cl)cc2)CC1` Test system: FAD-linked sulfhydryl oxidase ALR (Homo sapiens) Read-out: inhibition Value: ?
89.1

###

- test-target: FAD-linked sulfhydryl oxidase ALR (Homo sapiens)
- test-protocol: ALR-catalysed DTT oxidation blockers – biochemical, H2O2 detection, HRP-luminol luminescence, single point, primary screen (AID 485317)
- recorded-conditions: purified ALR, concentration not given here
Hit rate of the full screen: of about 290,000 compounds, about 11,000 (3.8%) were called active.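 How the source made its calls: active means mean replicate inhibition above about 79%, with every replicate also reaching it (limit read from the data); inconclusive means only one of the two criteria met; inactive means mean below limit and not every replicate reaching it.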 Only a selection was taken, and actives are over-represented in it overall.
Choose the fitting class; nothing outside Y (active), N (inactive) is accepted.

Example entries begin here.
# compound, cat
rows = [
    ("CCc1nnc(NS(=O)(=O)c2ccc(N=Cc3c(C)[nH]n(-c4ccc(C)cc4)c3=O)cc2)s1", "N"),
    ("CCCCn1c(N)c(N(CCOC)C(=O)CSCC(=O)Nc2cccc(C)c2)c(=O)[nH]c1=O", "N"),
    ("CC1CCCCC12NC(=O)N(CC(=O)N1CCN(c3ccccc3)CC1)C2=O (stereo unspecified)", "N"),
    ("Cc1ccc2nc(SCC(=O)N3CC(C)OC(C)C3)nc(=O)n2c1 (stereo unspecified)", "N"),
]

Can you look up the reported call for `Cc1oc2nc(SCC(=O)NCc3cccnc3)nc(N)c2c1C` for me?
N

Which result was noted for this compound in the test: `CCOc1ncccc1C(=O)OCC(=O)Nc1cccc(S(=O)(=O)N2CCCCCC2)c1`
N

###

- test-target: FAD-linked sulfhydryl oxidase ALR (Homo sapiens) (UniProt P55789)
- test-protocol: ALR-catalysed DTT oxidation blockers – biochemical, H2O2 detection, HRP-luminol luminescence, single point, primary screen (AID 485317)
- recorded-conditions: purified ALR, concentration not given here
Hit rate of the full screen: of about 290,000 compounds, about 11,000 (3.8%) were called active.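 How the source made its calls: active means mean replicate inhibition above about 79%, with every replicate also reaching it (limit read from the data); inconclusive means only one of the two criteria met; inactive means mean below limit and not every replicate reaching it.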 This is one part of a sample in which actives are shown more often than they occur.
Bench note: report the call from active, inactive

Field: outcome | Entry: `Cc1ccc(NC(=O)CN(C)C(=O)c2ccc(Cl)c(S(=O)(=O)NCc3ccco3)c2)cc1`
inactive

Short answer needed: outcome of this test for CC(OC(=O)/C=C/c1ccccc1)C(=O)Nc1ccc(C(N)=O)cc1 (stereo unspecified) ?
inactive

# fetch the recorded call for O=C(COc1ccccc1Cl)N1N=C(c2cccs2)CC1c1ccco1 (stereo unspecified) here
inactive

Tell me the recorded outcome of this test for Cc1ccc(Cn2ccc(NC(=O)C3C4CCC(C4)C3C(=O)O)n2)cc1 (stereo unspecified) .
inactive

Returns: the outcome recorded for `COc1ccc(S(=O)(=O)/N=C2\C=C(NS(=O)(=O)c3ccccc3)C(=O)c3ccccc32)cc1` in this assay.
active

// param item: `Cc1cc(O)c(Sc2ccccc2)c(=O)o1` ; yields the recorded call
inactive

Given `Cc1ccc(S(=O)(=O)Nc2nc(C)cc(N/N=C/c3ccc(O)cc3)n2)cc1` , state the outcome it received in this test.
active

Can you look up the reported call for `Cc1ccc(Nc2ncnc3c2cnn3C)c(C)c1` for me?
inactive

Dear colleague, could you share the recorded outcome for `O=C(Nc1ccn(Cc2ccccc2F)n1)c1ccc(COc2ccc(Cl)cc2Cl)o1` when you have a moment?
inactive

Given Oc1cc(O)c2c(c1)OC(c1ccc(O)c(O)c1)C(O)C2 (stereo unspecified) , state the outcome it received in this test.
active

Which outcome was assigned to `Cc1cc(N/N=C\c2ccc(Br)cc2)nc(-n2nc(C)cc2C)n1` in this test?
inactive

Returns: the outcome recorded for `CCOc1ccc(-c2n[nH]c(=S)n2/N=C/c2cc3c(cc2[N+](=O)[O-])OCO3)cc1` in this assay.
active

Hi, do you know how `Cc1ccc(-c2n[nH]c(=S)n2/N=C/c2cc3c(cc2[N+](=O)[O-])OCO3)cc1` came out in this test?
inactive

What classification did CC(OC(=O)c1ccc(Cl)cc1O)C(=O)NCCC1=CCCCC1 (stereo unspecified) end up with in this test?
inactive
